Papp at 4 h values for the compounds below.
testMethodNotes: Membrane permeability test (PAMPA)
Format: in vitro ADME
conditionContext: pH 7.4, 37° C., read-out: pH 7.4 Pe
valueType: Papp at 4 h (×10⁻⁶ cm/s)

> print(dat)
                                 smilestext  unitssymbol  number
1  CN1CC(N(Cc2ccc(C(F)(F)F)cc2)C(=O)CN2C(=O)N[C@]3(C[C@@H](F)c4cc(-c5cnn(C)c5)ccc43)C2=O)(C(F)(F)F)C1   ×10⁻⁶ cm/s    33.7
2  CC(C)n1cc(-c2ccc3c(c2)[C@H](F)C[C@]32NC(=O)N(CC(=O)N(Cc3ccc(F)cn3)C3(C(F)(F)F)CN(C)C3)C2=O)cn1   ×10⁻⁶ cm/s      27
3  CN1CC(N(Cc2ccc(F)cc2)C(=O)CN2C(=O)N[C@]3(CCc4cc(-c5cnn(C(C)(C)C#N)c5)ccc43)C2=O)(C(F)(F)F)C1   ×10⁻⁶ cm/s    26.9

Value source: patent US20250257055A1
